# assayComment: Subcutaneous and intravenous pharmacokinetics in healthy and irradiated Rhesus Macaques
# Type: in vivo
# setupConditions: male, rhesus monkey, plasma, sc, 1 mg/kg, healthy; single dose 1 mg/kg; mean ± SD
quantity: Tmax (h)
The response must be a number in h with no trailing unit.

Item CCCCCCCC/C=C\CCCCCCCCOP(O)(O)=S has what recorded Tmax?
4

###

# assayComment: Single subcutaneous dose pharmacokinetics in irradiated and unirradiated mice
# Type: in vivo, C57BL/6 mice
# setupConditions: female, C57BL/6, mouse, plasma, sc, 1 mg/kg, healthy females; single SC dose 1 mg/kg; read-out: exposure (AUC)
quantity: AUC (µg·h/mL)
Field format: number, assumed µg·h/mL, no unit text.

Returns the measured AUC for the input compound. Input: CCCCCCCC/C=C\CCCCCCCCOP(O)(O)=S
1.59

###

# assayComment: Subcutaneous and intravenous pharmacokinetics in healthy and irradiated Rhesus Macaques
# Format: in vivo
# setupConditions: male, rhesus monkey, plasma, sc, 1 mg/kg, SC 1 mg/kg, healthy; individual animals (ID in c1)
# Description: We performed a cross-over comparison of subcutaneous and intravenous pharmacokinetics of Rx100.L-Lysine in six healthy Rhesus Macaques and subcutaneous pharmacokinetic and Pharmacodynamics of Rx100.L-Lysine after a single irradiation in six Rhesus Macaques. […]
quantity: Cmax (ng/mL)
// units = ng/mL; emit number, no label

Query: Cmax; subject: CCCCCCCC/C=C\CCCCCCCCOP(O)(O)=S
2390

###

# studyTarget: LPA2 receptors from the mouse (Mus musculus)
# Construct: expressed in transfected cells
# Sequence (Q9JL06 whole entry): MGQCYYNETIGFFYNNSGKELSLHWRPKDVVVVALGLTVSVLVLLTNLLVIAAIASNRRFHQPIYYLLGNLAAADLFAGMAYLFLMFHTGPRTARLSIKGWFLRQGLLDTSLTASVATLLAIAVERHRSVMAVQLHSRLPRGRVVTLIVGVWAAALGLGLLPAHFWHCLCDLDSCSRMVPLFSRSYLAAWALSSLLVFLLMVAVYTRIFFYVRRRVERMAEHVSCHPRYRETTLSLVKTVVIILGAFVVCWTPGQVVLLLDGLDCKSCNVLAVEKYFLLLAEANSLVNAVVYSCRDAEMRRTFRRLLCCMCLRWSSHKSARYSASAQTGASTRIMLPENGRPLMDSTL
# assayComment: Calcium-mobilization assay (FURA-2), mouse LPA2
# Format: cell-based
quantity: EC50 (nM)
Return type: number; implicit unit nM.

// fetch LPA2 receptors from the mouse (Mus musculus) EC50 for CCCCCCCC/C=C\CCCCCCCCOP(O)(O)=S [Rx100]
167

Entry CCCCCCCC/C=C/CCCCCCCCOP(O)(O)=S [Rx103] please
355

###

# assayComment: Subcutaneous and intravenous pharmacokinetics in healthy and irradiated Rhesus Macaques
# Format: in vivo
# setupConditions: male, rhesus monkey, plasma, sc, 1 mg/kg, SC 1 mg/kg about 24 h after 11.5 Gy; individual animals (ID in c1); read-out: T1/2 (converted)
quantity: half-life (h)
Value expressed in h; do not type the unit.

Could you share which half-life value was measured for CCCCCCCC/C=C\CCCCCCCCOP(O)(O)=S [Rx100.L-Lysine] ?
9.21

###

# assayComment: Subcutaneous and intravenous pharmacokinetics in healthy and irradiated Rhesus Macaques
# Format: in vivo
# setupConditions: male, rhesus monkey, plasma, sc, 1 mg/kg, SC post IR; 1 mg/kg; read-out: exposure (AUCINF)
quantity: AUC(0-inf) (ng·h/mL)
Just the number in ng·h/mL, nothing appended.

For the compound CCCCCCCC/C=C\CCCCCCCCOP(O)(O)=S [Rx100.L-Lysine] , what AUC(0-inf) is on record?
57300

###

# assayComment: Subcutaneous and intravenous pharmacokinetics in healthy and irradiated Rhesus Macaques
# Type: in vivo
# setupConditions: male, rhesus monkey, plasma, iv, 1 mg/kg, intravenous bolus, healthy
quantity: Cmax (ng/mL)
The response must be a number in ng/mL with no trailing unit.

Can you share its Cmax? I mean this compound: CCCCCCCC/C=C\CCCCCCCCOP(O)(O)=S
18600

###

# assayComment: Rx100 salt screening (solid formation, XRPD wet/dry, filterability, exposure to RH > 90%)
# setupConditions: Rx100 salt formed with the named base; XRPD
quantity: Crystallinity

molecule="NC(CO)(CO)CO [Tromethamine]" quantity=Crystallinity resultvalue=no
molecule="CCCCCCCC/C=C\\CCCCCCCCOP([O-])(O)=S.[Na+] [Sodium]" quantity=Crystallinity resultvalue=yes
molecule="[K+] [Potassium]" quantity=Crystallinity resultvalue=yes
molecule="NCCCC[C@@H](N)C(=O)O [D-Lysine]" quantity=Crystallinity resultvalue=yes
